target.desc: Retinaldehyde dehydrogenase 3 (Homo sapiens)
assay.details: qHTS for Inhibitors of the Aldehyde Dehydrogenase Family (ALDH1A3) Confirmatory screens (AID 2061311); also: nearly all actives have a fitted effect of over 60% in size
protocol.conditions: ALDH inhibition qHTS; series mostly up to 46 µM
Inconclusive results are not listed. Active and inactive are the calls of the source. Calls follow the shape of the dose curve; as a rule, active = well fitted inhibition curve with a large enough effect; inconclusive = small, poorly fitted or top-dose-only effect; inactive = no such curve, though single readings can be large or run the other way.
Write down the outcome that applies. Available outcomes: t (active), f (inactive)

# outcome recorded in this test, key = Oc1ccc(COC2CCN(Cc3ccccc3)C2)c2cccnc12 (stereo not drawn) t

# outcome recorded in this test, key = `CCOc1ccc(S(=O)(=O)NCc2nc3cccnc3n2Cc2ccccc2OC)cc1` t

# outcome recorded in this test, key = `O=C(NCC(=O)N1CCN(Cc2ccccc2)CC1)c1cccc(-c2ccsc2)c1` f

# outcome recorded in this test, key = `Cc1ccc(NC(=O)N2CCN(c3ccc(Cl)c(Cl)c3)CC2)cc1` f

# outcome recorded in this test, key = `CCOC(=O)Cn1c(=O)oc2cc(S(=O)(=O)N3CCN(c4ccc(C(C)=O)cc4)CC3)ccc21` t

# outcome recorded in this test, key = `O=S(=O)(c1ccccc1)c1nnn2c1nc(NC1CCCC1)c1ccccc12` f

# outcome recorded in this test, key = `Cc1cccc(-c2ccccc2C=O)c1` f

# outcome recorded in this test, key = `CN1CCN(C(=O)c2cccc(-c3ccc(CNc4ccc(N5CCN(C(=O)OC(C)(C)C)CC5)cc4)o3)c2)CC1` f

# outcome recorded in this test, key = `COc1ccc(-c2nnc3ccc(NCCc4ccccc4)nn23)nc1` t

# outcome recorded in this test, key = `CCCOc1ccc(C(=O)Nc2ccc(NC(=O)c3cccc(Cl)c3)cc2)cc1` f

# outcome recorded in this test, key = `COc1cccc(CNc2ccc(S(=O)(=O)Nc3cccc4ccncc34)cc2)c1O` t

# outcome recorded in this test, key = `O=C(CCc1ccccc1)Nc1ccc([C@@H](O)[C@H]2COCC(=O)N2Cc2ccncc2)cc1` f

# outcome recorded in this test, key = `COC(=O)CCSC/C=C(\C)CCn1cc(CCc2ccc(-c3ccccc3)cc2)nn1` t

# outcome recorded in this test, key = COc1ccc(C2Nc3cccc(OC)c3C(=O)N2Cc2ccccc2)cc1COc1ccc(NC(C)=O)cc1 (stereo not drawn) t

# outcome recorded in this test, key = `O=C1Nc2c(Cl)cccc2/C1=C\c1cc(Cl)c(O)c(Cl)c1` f

# outcome recorded in this test, key = CCc1cc(N2CCOC(c3ccc4cc(OC)ccc4c3)C2)nc(C)n1 (stereo not drawn) f

# outcome recorded in this test, key = `CC(=O)c1ccc(N2CCN(S(=O)(=O)c3cc4c(cc3Cl)NC(=O)C4)CC2)cc1` t

# outcome recorded in this test, key = `COc1cccc(-c2cccc(C(=O)N3CCN(C(=O)Nc4ccccc4)CC3)c2)c1` f

# outcome recorded in this test, key = `Oc1cccc2cc(NCc3ccccc3F)cnc12` t

# outcome recorded in this test, key = `Cc1cccc(-c2ccc(C=O)cc2)c1` t

# outcome recorded in this test, key = `CC(C)(C)OC(=O)N[C@@H](Cc1ccc(O[S+](=O)([O-])c2cccnc2)cc1)C(=O)N1CCN(c2ccccc2)CC1` t

# outcome recorded in this test, key = O=C(C#Cc1ccccc1)NC1CCCc2c1cnn2-c1ccc(F)cc1F (stereo not drawn) f

# outcome recorded in this test, key = `CCOc1ccc(NC(=O)Nc2cc3c(cc2N2CCCCC2)n(C)c(=O)n3C)cc1` f

# outcome recorded in this test, key = `OCc1ccc(-c2ccc3nnc(-c4ccccn4)n3n2)cc1` f

# outcome recorded in this test, key = `COc1ccc(C2(C(=O)NCc3ccccc3)CCOCC2)cc1` f

# outcome recorded in this test, key = `Cc1sc(NC(=O)Cc2ccc3c(c2)OCO3)nc1-c1ccc2c(c1)CCN2` t

# outcome recorded in this test, key = `Cc1cc2ncc(C(=O)NCCc3ccccc3F)cn2n1` f

# outcome recorded in this test, key = O=C(O)c1ccc(O)c2ncc(NC3CCNC3)cc12 (stereo not drawn) f

# outcome recorded in this test, key = `N#Cc1cccc(C(=O)Nc2ccc3c(N4CCOCC4)ncnc3c2)c1` f

# outcome recorded in this test, key = `C=CCNc1nnc(-c2cccc3ccccc23)o1` t

# outcome recorded in this test, key = `Cc1cc(C)nc(NC(=S)N2CCN(c3cccc4cnccc34)CC2)c1` t

# outcome recorded in this test, key = `CC(=O)N1CCN(c2ccc(NCc3ccc(Br)o3)cc2)CC1` t

# outcome recorded in this test, key = `O=C(Nc1ccc(N2CCOCC2)nc1)c1cccs1` t

# outcome recorded in this test, key = `O=C(Nc1cccc(Cc2ccccc2)n1)c1ccc(-c2cccc([N+](=O)[O-])c2)o1` t

# outcome recorded in this test, key = `CN1CCN(c2ccc(NC(=O)CN(C)Cc3c(O)ccc4ccccc34)cc2)CC1` t

# outcome recorded in this test, key = `Oc1ccc(COc2cccc3ccccc23)c2cccnc12` t

# outcome recorded in this test, key = `O=C1Cc2cc(S(=O)(=O)N3CCN(c4ccccc4)CC3)ccc2N1` f

# outcome recorded in this test, key = `COc1ccccc1-c1ccc2ncc(Nc3cccc(O)c3)n2n1` f

# outcome recorded in this test, key = `O=C1Nc2ccccc2/C1=C\c1ccc([N+](=O)[O-])cc1` t

# outcome recorded in this test, key = `O=C(NCc1ccc(F)cc1)c1ccc2nnc(-c3cccc(C(F)(F)F)c3)n2c1` f

# outcome recorded in this test, key = `O=C(CSc1nc2ccccc2n1CCc1ccccc1)c1ccc(O)c(O)c1` t

# outcome recorded in this test, key = `O=C(CSc1nc2c(cnn2-c2ccc(F)cc2)c(=O)[nH]1)Nc1ccc(Br)cc1` f

# outcome recorded in this test, key = `COc1ccccc1-c1cc2c(nc1OC)nc(CC1CC1)n2C` f
